Tested on: anti-EBNA antibodies
protocol_notes: ELISA with polypeptide as solid phase antigen, detecting anti-polypeptide antibodies in sera
Format: binding, human
conditions: serum VCA + Normal 2; dilution 1:20
Residues, ends and D or L forms follow the SMILES beside them.
The reader will find reported OD405 × 10^3 obtained with patient antibodies to polypeptide values listed item by item below.
Numeric answer plus unit only.

Here is how some molecules turned out for OD405 × 10^3 obtained with patient antibodies to polypeptide.
[
  {
    "molecule": "C[C@H](NC(=O)CNC(=O)CNC(=O)[C@H](C)NC(=O)CNC(=O)[C@H](C)NC(=O)CNC(=O)CNC(=O)CN)C(=O)NCC(=O)N[C@@H](C)C(=O)NCC(=O)NCC(=O)NCC(=O)NCC(=O)N[C@@H](CCCNC(=N)N)C(=O)O [Polypeptide P60] (H-GGGAGAGGAGAGGGGR-OH)",
    "result": "145 OD405 × 10^3"
  },
  {
    "molecule": "C[C@H](N)C(=O)NCC(=O)N[C@@H](C)C(=O)NCC(=O)NCC(=O)NCC(=O)N[C@@H](C)C(=O)NCC(=O)NCC(=O)N[C@@H](C)C(=O)NCC(=O)N[C@@H](C)C(=O)NCC(=O)NCC(=O)NCC(=O)N[C@@H](C)C(=O)NCC(=O)NCC(=O)N[C@@H](C)C(=O)NCC(=O)O [Polypeptide P62] (H-AGAGGGAGGAGAGGGAGGAG-OH)",
    "result": "819 OD405 × 10^3"
  },
  {
    "molecule": "C[C@H](NC(=O)CNC(=O)CNC(=O)[C@H](C)NC(=O)CNC(=O)[C@H](C)NC(=O)CNC(=O)[C@H](C)NC(=O)CNC(=O)[C@@H](NC(=O)CNC(=O)CNC(=O)[C@H](Cc1c[nH]cn1)NC(=O)[C@@H](NC(=O)CNC(=O)[C@@H](N)CCCCN)[C@@H](C)O)[C@@H](C)O)C(=O)NCC(=O)N[C@@H](C)C(=O)NCC(=O)O [Polypeptide P27] (H-KGTHGGTGAGAGAGGAGAG-OH)",
    "result": "516 OD405 × 10^3"
  }
]

// OD405 × 10^3 obtained with patient antibodies to polypeptide lookup, key: CSCC[C@H](NC(=O)[C@@H]1CCCN1C(=O)[C@H](CCCNC(=N)N)NC(=O)[C@H](CCCCN)NC(=O)[C@H](CCC(=O)O)NC(=O)CNC(=O)[C@H](CCCNC(=N)N)NC(=O)CNC(=O)[C@H](CCCNC(=N)N)NC(=O)CNC(=O)[C@H](CCCNC(=N)N)NC(=O)CNC(=O)[C@H](CCCNC(=N)N)NC(=O)[C@H](C)NC(=O)[C@@H](N)CCCNC(=N)N)C(=O)O [Polypeptide P89] (H-RARGRGRGRGEKRPM-OH) 16 OD405 × 10^3
